For each record, write down the corresponding MIC.
- Test system: Staphylococcus aureus USA100
- protocol-description: MIC assay, S. aureus USA100
One number for each entry, in µg/mL.

molecule	obs-value
CC(=O)OC1C(C)C(OC2CC3OCOC3C(C)O2)/C=C/OC2(C)CC(O)c3c(c(C)c(O)c4c3C(=O)C=C(NC(=O)/C(C)=C\C=C\C(C(C)OC(=O)C(C)(C)CC(=O)O)C(O)C(C)C(O)C1C)C4=O)O2 (stereo not shown)	0.13
CC(=O)O[C@@H]1[C@@H](C)[C@@H](O)[C@@H](C)[C@@H](O)[C@@H]([C@@H](C)OC(=O)C(C)(C)CC(=O)O)/C=C/C=C(\C)C(=O)NC2=CC(=O)c3c(c(O)c(C)c4c3C(=O)[C@](C)(O/C=C/[C@H](O[C@@H]3C[C@@H]5OCO[C@@H]5[C@H](C)O3)[C@H]1C)O4)C2=O [Kang A, kanglemycin A, reference compound]	1.0
CC(=O)OC1C(C)C(OC2CC3OCOC3C(C)O2)/C=C/OC2(C)OC3=C(C)C(=O)c4c(O)c(cc5c4C3=C2OCO5)NC(=O)/C(C)=C\C=C\C(C(C)OC(=O)C(C)(C)CC(=O)O)C(O)C(C)C(O)C1C (stereo not shown)	1

Next:
Given the molecule CO[C@H]1/C=C/O[C@@]2(C)Oc3c(C)c(O)c4c(O)c(c(/C=N/N5CCN(C)CC5)c(O)c4c3C2=O)NC(=O)/C(C)=C\C=C\[C@H](C)[C@H](O)[C@@H](C)[C@@H](O)[C@@H](C)[C@H](OC(C)=O)[C@@H]1C [Rifampicin, rifampicin, reference compound] , write its reported MIC.
0.0078

----------
For each entry below, report its MIC value.
- System: Staphylococcus epidermidis RP62A
- protocol-description: MIC assay, Staphylococcus epidermidis RP62A
Numbers only, in µg/mL.

Would you mind listing MIC for each of the following compounds?
1. CC(=O)OC1C(C)C(OC2CC3OCOC3C(C)O2)/C=C/OC2(C)OC3=C(C)C(=O)c4c(O)c(cc5c4C3=C2OCO5)NC(=O)/C(C)=C\C=C\C(C(C)OC(=O)C(C)(C)CC(=O)O)C(O)C(C)C(O)C1C (stereo not shown) [Kang V2, kanglemycin V2]
2. CO[C@H]1/C=C/O[C@@]2(C)Oc3c(C)c(O)c4c(O)c(c(/C=N/N5CCN(C)CC5)c(O)c4c3C2=O)NC(=O)/C(C)=C\C=C\[C@H](C)[C@H](O)[C@@H](C)[C@@H](O)[C@@H](C)[C@H](OC(C)=O)[C@@H]1C [Rifampicin, rifampicin, reference compound]
3. CC(=O)OC1C(C)C(OC2CC3OCOC3C(C)O2)/C=C/OC2(C)CC(O)c3c(c(C)c(O)c4c3C(=O)C=C(NC(=O)/C(C)=C\C=C\C(C(C)OC(=O)C(C)(C)CC(=O)O)C(O)C(C)C(O)C1C)C4=O)O2 (stereo not shown) [Kang V1, kanglemycin V1]
4. CC(=O)O[C@@H]1[C@@H](C)[C@@H](O)[C@@H](C)[C@@H](O)[C@@H]([C@@H](C)OC(=O)C(C)(C)CC(=O)O)/C=C/C=C(\C)C(=O)NC2=CC(=O)c3c(c(O)c(C)c4c3C(=O)[C@](C)(O/C=C/[C@H](O[C@@H]3C[C@@H]5OCO[C@@H]5[C@H](C)O3)[C@H]1C)O4)C2=O [Kang A, kanglemycin A, reference compound]

0.25
0.016
0.031
0.25
